Where do the numbers come from? From ChEMBL document CHEMBL3232962.

- TARGET OR TEST SYSTEM: Heat shock protein HSP 90-beta (Homo sapiens, UniProt P08238)
- Sequence (P08238 whole entry): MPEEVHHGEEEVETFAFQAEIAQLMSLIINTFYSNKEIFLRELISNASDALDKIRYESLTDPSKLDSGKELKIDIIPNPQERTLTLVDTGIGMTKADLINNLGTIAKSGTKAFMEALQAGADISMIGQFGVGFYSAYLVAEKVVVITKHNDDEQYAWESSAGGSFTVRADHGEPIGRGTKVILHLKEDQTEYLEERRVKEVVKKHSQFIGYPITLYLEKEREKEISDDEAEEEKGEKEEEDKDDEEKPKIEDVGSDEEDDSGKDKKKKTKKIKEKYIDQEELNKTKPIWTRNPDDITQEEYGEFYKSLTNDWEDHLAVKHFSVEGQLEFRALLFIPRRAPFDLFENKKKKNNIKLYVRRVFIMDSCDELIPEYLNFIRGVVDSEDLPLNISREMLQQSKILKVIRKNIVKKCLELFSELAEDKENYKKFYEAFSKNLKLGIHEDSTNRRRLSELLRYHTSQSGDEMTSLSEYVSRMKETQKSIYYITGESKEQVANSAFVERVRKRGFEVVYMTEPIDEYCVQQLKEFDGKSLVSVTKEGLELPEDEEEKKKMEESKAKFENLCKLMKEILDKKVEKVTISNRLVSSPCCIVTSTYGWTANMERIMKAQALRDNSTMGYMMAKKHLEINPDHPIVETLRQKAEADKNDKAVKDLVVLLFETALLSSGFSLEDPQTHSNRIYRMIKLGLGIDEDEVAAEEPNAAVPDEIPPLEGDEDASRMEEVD
- TEST: Displacement of FITC-geldanamycin from HSP90 (unknown origin) after 30 mins by fluorescence polarization assay
ENDPOINT LABEL: IC50

Field request: IC50 | item: Fc1ccc(CN2CCc3nc(N4CCN(c5ncccn5)CC4)ncc3C2)cc1
> 100 µM

Field request: IC50 | item: O=C(c1ccc(Cl)cc1)N1CCc2nc(N3CCN(c4ncccn4)CC3)ncc2C1
> 100 µM

Field request: IC50 | item: CN(C)c1ccc(CN2CCc3nc(N4CCN(c5ncccn5)CC4)ncc3C2)cc1
> 100 µM
